Molecular target: Peregrin (Homo sapiens)
Conditions: Compound concentration 20.0 uM
Please enter 1 (yes) where ΔTm is greater than or equal to -0.4 °C, and 0 (no) where it is lower.

Previously resolved entries follow.
- CNc1nccc(CN(CC2CCNCC2)S(=O)(=O)c2ccc(S(=O)(=O)N(Cc3ccc(Cl)cc3)C3CCCC3)cc2)n1: 1 (yes)
- NC(=O)c1ccc(Oc2ccc(C(N)=O)cc2)cc1: 0 (no)
- CC/C(=C(/c1ccc(/C=C/C(=O)O)cc1)c1ccc2[nH]ncc2c1)c1ccc(F)cc1Cl: 1 (yes)

[Q] Exam item: decide whether the reported ΔTm for C[C@@H]1O[C@@H](CC(=O)O)CC2=C1C(=O)c1c(O)cccc1C2=O is at least -0.4 °C.
[A] 1 (yes)

[Q] Exam item: decide whether the reported ΔTm for Nc1ncnc2c1nc(NCc1ccc(-c3ccccc3)cc1)n2[C@@H]1O[C@H](CO)[C@@H](O)[C@H]1O is at least -0.4 °C.
[A] 1 (yes)

[Q] Exam item: decide whether the reported ΔTm for Cc1cc(OCc2nnc(SC3CCCC3)n2-c2cccnc2)ccc1-c1ccc(S(C)(=O)=O)cc1 is at least -0.4 °C.
[A] 0 (no)

[Q] Exam item: decide whether the reported ΔTm for O=C(CN1CCN(c2ccc(F)cn2)CC1)Nc1nc2c(s1)CCCC2 is at least -0.4 °C.
[A] 1 (yes)

[Q] Exam item: decide whether the reported ΔTm for COc1ccc(OC)c(-c2nnc3n2N=C(c2ccc(OC)c(OC)c2)CS3)c1 is at least -0.4 °C.
[A] 1 (yes)

[Q] Exam item: decide whether the reported ΔTm for CC(C)c1cc(C(=O)N2Cc3ccc(CN4CCN(C)CC4)cc3C2)c(O)cc1O is at least -0.4 °C.
[A] 0 (no)

[Q] Exam item: decide whether the reported ΔTm for OC[C@H]1O[C@@H](c2ccc(Cl)c(Cc3ccc(OCCOC4CC4)cc3)c2)[C@H](O)[C@@H](O)[C@@H]1O is at least -0.4 °C.
[A] 1 (yes)

[Q] Exam item: decide whether the reported ΔTm for CC(C)(C)c1ccc(S(=O)(=O)NCc2ccc(C(=O)Nc3cccnc3)cc2)cc1 is at least -0.4 °C.
[A] 0 (no)

[Q] Exam item: decide whether the reported ΔTm for CC(C)n1nc(-c2cc3cc(O)ccc3[nH]2)c2c(N)ncnc21 is at least -0.4 °C.
[A] 1 (yes)

* * *

Give ΔTm for every item shown.
Target: Peregrin (Homo sapiens) (UniProt P55201)
Sequence (P55201 whole entry): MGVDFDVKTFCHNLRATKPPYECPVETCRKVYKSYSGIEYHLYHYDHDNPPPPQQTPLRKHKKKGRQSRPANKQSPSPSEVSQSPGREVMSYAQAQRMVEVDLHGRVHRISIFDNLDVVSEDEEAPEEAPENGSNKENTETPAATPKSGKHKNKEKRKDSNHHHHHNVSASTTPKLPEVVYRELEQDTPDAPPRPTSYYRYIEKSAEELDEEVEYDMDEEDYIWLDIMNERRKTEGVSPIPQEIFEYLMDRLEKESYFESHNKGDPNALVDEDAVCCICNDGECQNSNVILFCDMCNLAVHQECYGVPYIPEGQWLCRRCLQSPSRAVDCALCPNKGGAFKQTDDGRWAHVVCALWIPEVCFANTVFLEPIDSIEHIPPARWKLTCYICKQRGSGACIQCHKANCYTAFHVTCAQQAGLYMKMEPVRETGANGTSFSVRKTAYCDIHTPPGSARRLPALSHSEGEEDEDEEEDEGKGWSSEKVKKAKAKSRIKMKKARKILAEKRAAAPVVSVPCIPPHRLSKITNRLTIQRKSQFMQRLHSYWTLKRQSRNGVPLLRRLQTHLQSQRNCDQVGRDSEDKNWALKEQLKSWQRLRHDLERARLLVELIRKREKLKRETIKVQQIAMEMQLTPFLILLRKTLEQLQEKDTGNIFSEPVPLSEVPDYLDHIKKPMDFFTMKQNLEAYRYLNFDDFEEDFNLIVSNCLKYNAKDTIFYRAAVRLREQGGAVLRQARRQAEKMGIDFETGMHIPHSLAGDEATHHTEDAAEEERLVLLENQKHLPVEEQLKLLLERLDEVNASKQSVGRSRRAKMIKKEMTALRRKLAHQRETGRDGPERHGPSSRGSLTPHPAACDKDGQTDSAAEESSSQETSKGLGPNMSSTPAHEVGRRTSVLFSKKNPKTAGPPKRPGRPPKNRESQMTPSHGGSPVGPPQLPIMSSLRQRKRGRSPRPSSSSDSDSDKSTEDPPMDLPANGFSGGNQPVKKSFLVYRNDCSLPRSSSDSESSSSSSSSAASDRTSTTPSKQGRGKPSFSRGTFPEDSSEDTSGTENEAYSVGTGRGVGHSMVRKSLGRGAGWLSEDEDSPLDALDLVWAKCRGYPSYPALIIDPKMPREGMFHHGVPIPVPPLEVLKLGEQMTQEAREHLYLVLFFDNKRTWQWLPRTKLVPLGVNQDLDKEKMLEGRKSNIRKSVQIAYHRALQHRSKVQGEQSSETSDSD
Details: Compound concentration 20.0 uM
Residues, ends and D or L forms follow the SMILES beside them.
One number for each entry, in °C.

Here's what some known entries look like.
• O=C(c1cc(Cc2n[nH]c(=O)c3ccccc23)ccc1F)N1CCn2nc(C(F)(F)F)nc2C1 = 0.87
• Fc1ccc(CNc2ncnc3ccc(F)cc23)cc1 = 1.26
• C(=C\c1ccccc1)/CN1CCN(CCOC(c2ccccc2)c2ccccc2)CC1 = 0.95
• CN1C[C@@H]2[C@H](C1)[C@H]2CN(Cc1ccc(F)c(Cl)c1)C(=O)c1cn(C)cn1 = 1.67
• CC(C)(C)OC(=O)NCCCCCN(CCc1ccccc1)C(=O)n1cc(-c2ccc(OC(F)(F)F)cc2)nn1 = 1.14
• O=C(O)C1=CCCN(CCON=C(c2ccccc2)c2ccccc2)C1 = 0.57
• CN(CCCCCCNc1ccnc2cc(Cl)ccc12)CCCCCCNc1ccnc2cc(Cl)ccc12 = 0.99
• CC(=O)N[C@@H](CC(C)C)C(=O)N[C@@H](CCC(=O)O)C(=O)N[C@@H](Cc1cnc[nH]1)C(=O)N[C@H](C=O)CC(=O)O (Ac-LEHD-aldehyde) = -1.22
• N#C[C@@H]1CCCN1C(=O)[C@@H]1CCCN1C(=O)CCCc1ccccc1 = -1.55
• CC(=O)N[C@@H](Cc1ccc(O)cc1)C(=O)N[C@H](C(=O)N[C@@H](C)C(=O)N[C@H](C=O)CC(=O)O)C(C)C = -1.25

For every record below, what is its ΔTm?
1. N#Cc1ccc(-c2c3n(c4cccnc24)CCN(C2CC2)C3=O)cc1F
2. CN1C(=O)c2c(nn(Cc3ccc(-c4cccc(F)n4)cc3)c2Nc2ccccc2)N2C1=N[C@@H]1CCC[C@@H]12
3. O=C(CCCCCCNC(=O)c1cnc(N(c2ccccc2)c2ccccc2)nc1)NO
4. Cn1c(OC[C@H]2CC[C@H](C(F)(F)F)CC2)nn2c(C3CCOCC3)ncc2c1=O
5. O=C(O)C1=CCCN(CCOC(c2ccc(C(F)(F)F)cc2)c2ccc(C(F)(F)F)cc2)C1
6. CN(C)Cc1ccc(S(=O)(=O)n2ccc(/C=C/C(=O)NO)c2)cc1
7. O=C(Nc1ccc2[nH]nc(-c3ccncc3)c2c1)[C@@H]1CCN(CC(=O)N2CCN(c3ccc(-c4ncccn4)cc3)CC2)C1

[A]
-0.31
-0.45
-1.39
2.25
0.47
-0.83
-0.34

* * *

Give ΔTm for every item shown.
Target: Peregrin (Homo sapiens)
Conditions: Compound concentration 20.0 uM
Give bare numbers, in °C.

Here's what some known entries look like.
• CCN(CC)c1ccc(C2=NNC(=O)C[C@H]2C)cc1[N+](=O)[O-] = 1.09
• O=C(Nc1c(Cl)cncc1Cl)c1ccc(OC(F)F)c(OCC2CC2)c1 = 0.52
• Cc1c(NC(=O)c2cc(C(N)=O)nc3cc(F)ccc23)c(C(F)(F)F)nn1Cc1ccc(C#N)cc1 = 0.94
• C[C@H](NC(=O)c1cn(C2(C#N)CC2)cn1)C(=O)Nc1nc(-c2cccc(-c3ccn(C)n3)c2)cs1 = -0.85

For every record below, what is its ΔTm?
1. Cc1cc(N2C[C@@H](C)N[C@@H](C)C2)ncc1-c1ccc(-c2nc3c(ccn3C)c(=O)[nH]2)cc1
2. C[C@@H](Oc1ccc(CNC(=O)c2cccnc2Oc2ccc3c(c2)OCO3)c(F)c1)C(=O)O
3. CC1(NC(=O)COc2cccc(-c3nc4c(c(Nc5ccc(-c6cn[nH]c6)cc5)n3)CN(C3CCC3)CC4)c2)CC1

[A]
1: 2.61; 2: 3.08; 3: 1.53

For every record below, what is its ΔTm?
1. O=C(O)CCNc1cc(N2CCc3ccccc3CC2)nc(-c2ccccn2)n1
2. O=C1c2ccccc2C(=O)c2oc(-c3ccccc3)nc21
3. CCOC(=O)Oc1c(OC)cc(C(=O)O[C@H]2C[C@H]3CN4CCc5c([nH]c6cc(OC)ccc56)[C@@H]4C[C@H]3[C@@H](C(=O)OC)[C@@H]2OC)cc1OC
4. CC(C)(O)c1ccc(N2Cc3c(ccnc3-c3ccc(F)cc3OCC(F)(F)F)C2=O)cc1

[A]
1: 0.6; 2: 1.63; 3: 2.92; 4: -1.27

* * *

Biological target: Fibroblast growth factor receptor 2 (Homo sapiens) (UniProt P21802)
Sequence (P21802 22-821 limits assumed): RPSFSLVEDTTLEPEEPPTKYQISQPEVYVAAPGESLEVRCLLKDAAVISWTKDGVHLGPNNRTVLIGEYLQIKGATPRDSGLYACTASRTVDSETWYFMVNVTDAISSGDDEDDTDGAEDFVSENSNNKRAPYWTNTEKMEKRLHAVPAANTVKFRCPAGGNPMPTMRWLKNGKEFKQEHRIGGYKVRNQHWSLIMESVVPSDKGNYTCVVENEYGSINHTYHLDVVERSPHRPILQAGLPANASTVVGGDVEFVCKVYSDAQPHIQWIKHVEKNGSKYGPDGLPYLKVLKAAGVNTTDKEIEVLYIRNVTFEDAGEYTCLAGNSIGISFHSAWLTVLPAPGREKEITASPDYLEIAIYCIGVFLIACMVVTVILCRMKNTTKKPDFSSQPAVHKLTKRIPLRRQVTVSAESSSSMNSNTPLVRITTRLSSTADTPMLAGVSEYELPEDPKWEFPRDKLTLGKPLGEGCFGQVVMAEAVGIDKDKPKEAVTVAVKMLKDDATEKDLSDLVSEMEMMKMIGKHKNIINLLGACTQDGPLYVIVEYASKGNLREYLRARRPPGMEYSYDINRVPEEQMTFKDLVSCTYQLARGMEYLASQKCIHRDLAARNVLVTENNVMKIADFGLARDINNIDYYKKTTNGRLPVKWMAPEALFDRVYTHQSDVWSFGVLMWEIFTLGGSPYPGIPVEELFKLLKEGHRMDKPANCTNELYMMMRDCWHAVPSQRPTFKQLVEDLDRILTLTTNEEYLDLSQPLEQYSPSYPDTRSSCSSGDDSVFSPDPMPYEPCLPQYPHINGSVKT
Conditions: Compound concentration 20.0 uM
Description: Thermal Shift Assay. Domain: start/stop: T457-E768
Please enter MET where ΔTm is greater than or equal to -0.2 °C, and NOT MET where it is lower.

Previously resolved entries follow.
• O=C1/C(=N/Nc2ccc(S(=O)(=O)O)cc2)C(c2ccc([N+](=O)[O-])cc2)=NN1c1ccccc1 = MET
• CN(CCOc1ccc(-c2ccc3c(c2)OCO3)cc1C(C)(C)C)CC(=O)O = NOT MET
• Cc1cc(S(C)(=O)=O)c(S(C)(=O)=O)cc1C(=O)NC(=N)N = MET
• O=C1c2ccccc2C(=O)c2oc(-c3ccccc3)nc21 = NOT MET
• FC(F)(F)Cn1cc(-c2ccncc2)c(-c2ccc(OCc3ccc4ccccc4n3)cc2)n1 = MET
• O=C(c1cc(Cc2n[nH]c(=O)c3ccccc23)ccc1F)N1CCN(C(=O)C2CC2)CC1 = MET
• CCCCCCCC(=O)N[C@H](CN1CCCC1)[C@H](O)c1ccc2c(c1)OCCO2 = MET
• COc1ccc2nc3[nH]nc(C)c3c(NCCOCCO)c2c1 = MET
• CCc1c(-c2ccccc2)c(-c2ccccc2)nn1-c1ccccc1-c1cccc(OCC(=O)O)c1 = NOT MET
• Cc1ccc(C)c(-n2sc3cc(F)ccc3c2=O)c1 = NOT MET

[Q] Exam item: decide whether the reported ΔTm for CC(C)[C@H](NC(=O)OCc1ccccc1)C(=O)NC(CC(=O)O)C(=O)CF (stereo partly specified) is at least -0.2 °C.
[A] MET

[Q] Exam item: decide whether the reported ΔTm for O=C(COc1ccc(-c2oc3cc(O)c(C(=O)O)cc3c2C#Cc2cccc(Cl)c2)cc1)NC1CC1 is at least -0.2 °C.
[A] MET

[Q] Exam item: decide whether the reported ΔTm for CCS(=O)(=O)Cc1cnc(Oc2ccc(F)cc2F)c(-c2cc(C)c3c(=O)[nH]ccn23)c1 is at least -0.2 °C.
[A] MET

[Q] Exam item: decide whether the reported ΔTm for COc1ccc(C(=O)C2CCN(CC(=O)N(Cc3nc4c(c(=O)[nH]3)COCC4)CC3CC3)CC2)cc1 is at least -0.2 °C.
[A] NOT MET

[Q] Exam item: decide whether the reported ΔTm for CC1(C)c2cccc(C(=O)NO)c2CN1c1cnc(C(F)(F)F)cn1 is at least -0.2 °C.
[A] MET

[Q] Exam item: decide whether the reported ΔTm for CCCCCCCCCCCCC/C=C/[C@@H](O)[C@H](CO)NC(=O)CBr is at least -0.2 °C.
[A] NOT MET
